Item-by-item account of TGI
- Test system: HCT-116 colon
- test_name: NCI tumour cell line growth inhibition, 48 h
measured_attribute: TGI

1. CCCN1C(=O)C/C(=C\C(C)=O)Nc2ccccc21 ... > 100 µM
2. CCC1(C)C=Cc2c(cc(OC)c3c(=O)c4ccccc4n(C)c23)O1 (stereo not given) ... > 10 µM
3. CC(C)=CCC[C@]1(C)CC[C@]2(C)C3CCC(=C(C)C)[C@@H](CCCO)[C@]3(C)CC[C@@]2(C)C1 (stereo not given in full) ... > 100 µM
4. CC(C)(C)OC(=O)[N+](=N)C(=O)C1CCC(=O)N1C(=O)OCc1ccccc1 (stereo not given) ... > 100 µM
5. c1ccc(COc2ccc(CC3SCCCS3)cc2)cc1 ... > 100 µM
